All values here come from patent US20100022491A1.

Property: IC50; scope: individual molecules
- Experimental system: recombinant human α1D receptor (Homo sapiens, UniProt P25100)
- Construct: expressed in transfected cells; host or cells: HEK293
- Sequence (P25100 whole entry): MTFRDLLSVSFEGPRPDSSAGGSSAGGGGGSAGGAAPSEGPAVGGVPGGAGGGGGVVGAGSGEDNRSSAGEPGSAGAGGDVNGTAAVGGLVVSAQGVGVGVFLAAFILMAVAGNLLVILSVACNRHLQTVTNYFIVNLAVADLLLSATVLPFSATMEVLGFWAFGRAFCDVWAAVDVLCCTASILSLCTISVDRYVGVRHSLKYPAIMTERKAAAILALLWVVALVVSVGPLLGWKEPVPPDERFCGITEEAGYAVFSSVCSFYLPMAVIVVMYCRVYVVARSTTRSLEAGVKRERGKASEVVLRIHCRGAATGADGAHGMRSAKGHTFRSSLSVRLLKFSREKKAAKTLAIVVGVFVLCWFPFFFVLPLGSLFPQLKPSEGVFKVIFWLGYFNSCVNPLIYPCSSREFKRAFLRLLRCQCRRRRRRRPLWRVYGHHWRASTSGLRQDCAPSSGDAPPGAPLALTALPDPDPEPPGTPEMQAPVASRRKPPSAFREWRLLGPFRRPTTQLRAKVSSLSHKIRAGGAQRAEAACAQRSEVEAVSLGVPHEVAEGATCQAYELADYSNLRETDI
- Experiment summary: Adrenergic α1D selectivity binding assay ([3H]-prazosin)
- Measurement setup: inhibition of [3H]-prazosin (0.3 nM) binding, HEK293 membranes; read-out: α1 bind pIC50 (converted)
Where a name gives a salt, the structure may show the parent alone.

Short answer for CC(C)(C)CN(CCNCCc1ccc(O)c2[nH]c(=O)sc12)C(=O)CCNCCc1cccc(F)c1 [Example 44, bis-trifluoroacetic acid salt] : IC50 was 316 nM

IC50 for C[C@@H](CNCCC(=O)N(CCNCCc1ccc(O)c2[nH]c(=O)sc12)C1CCCCC1)c1ccccc1 [Example 20, bis-trifluoroacetic acid salt] is 251 nM

Consider O=C(CCNCCc1cccc(O)c1)N(CCNCCc1ccc(O)c2[nH]c(=O)sc12)C1CCCCC1 [Example 71, bis-trifluoroacetic acid salt] . Its measured IC50 is 200 nM

For this molecule ( COc1ccc(CCNCCC(=O)N(CCNCCc2ccc(O)c3[nH]c(=O)sc23)C2CCCCC2)cc1 [Example 68, bis-trifluoroacetic acid salt] ), measured IC50 is 200 nM

Lab note: O=C(CCNCCc1ccc(Cl)cc1)N(CCNCCc1ccc(O)c2[nH]c(=O)sc12)C1CCOCC1 [Example 26, bis-trifluoroacetic acid salt] gave IC50 of 501 nM

O=C(CCNCCc1cccc(O)c1)N(CCNCCc1ccc(O)c2[nH]c(=O)sc12)C1CCCCCC1 [Example 37, bis-trifluoroacetic acid salt] yielded IC50 of 200 nM

###

- Experimental system: Adrenergic β2 (Homo sapiens)
- Construct: Adherent H292 cells were removed from tissue culture flasks; endogenous in cells; host or cells: H292 cells
- Sequence (P07550 whole entry): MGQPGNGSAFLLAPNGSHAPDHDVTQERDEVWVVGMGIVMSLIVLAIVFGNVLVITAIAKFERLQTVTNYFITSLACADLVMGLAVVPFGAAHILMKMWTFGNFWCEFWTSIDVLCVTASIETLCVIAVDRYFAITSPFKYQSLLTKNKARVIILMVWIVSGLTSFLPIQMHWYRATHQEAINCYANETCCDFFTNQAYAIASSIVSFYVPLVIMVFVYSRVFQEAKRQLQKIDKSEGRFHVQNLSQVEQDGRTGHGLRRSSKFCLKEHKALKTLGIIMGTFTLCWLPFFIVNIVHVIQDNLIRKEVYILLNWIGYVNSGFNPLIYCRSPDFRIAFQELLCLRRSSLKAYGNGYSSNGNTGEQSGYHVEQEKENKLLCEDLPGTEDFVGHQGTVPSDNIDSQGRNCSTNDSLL
- Experiment summary: Adrenergic β2 mediated cAMP production in H292 cells
- Assay type: cell-based
- Measurement setup: Intrinsic Activity as a fraction relative to the maximum activity determined for formoterol
Structures can show the parent of a compound that is named as a salt.
Label rule met when β2 Int Act is strictly below 0.9; at or above that, label rule not met.

A selection of reference data follows.
Compound: O=C(CCNCCc1ccccc1)N(CCNCCc1ccc(O)c2[nH]c(=O)sc12)C1CCSCC1 [Example 62, bis-trifluoroacetic acid salt]
Class: rule met
--
Compound: O=C(CCNCCc1cccc(O)c1)N(CCNCCc1ccc(O)c2[nH]c(=O)sc12)C1CCCCC1 [Example 71, bis-trifluoroacetic acid salt]
Class: rule not met
--
Compound: O=C(CCNCCc1ccccc1Cl)N(CCNCCc1ccc(O)c2[nH]c(=O)sc12)C1CCCC1 [Example 29, bis-trifluoroacetic acid salt]
Class: rule not met

Turning now to a further record.
For this compound, is β2 Int Act lower than 0.9? O=C(CCNCCc1ccc(F)cc1Cl)N(CCNCCc1ccc(O)c2[nH]c(=O)sc12)C1CCCCCC1 [Example 57, bis-trifluoroacetic acid salt] rule met

###

- Experimental system: recombinant human Dopamine Subtype D2s receptors (Homo sapiens, UniProt P14416)
- Construct: purchased Perkin Elmer
- Sequence (P14416 1-414 isoform P14416-2): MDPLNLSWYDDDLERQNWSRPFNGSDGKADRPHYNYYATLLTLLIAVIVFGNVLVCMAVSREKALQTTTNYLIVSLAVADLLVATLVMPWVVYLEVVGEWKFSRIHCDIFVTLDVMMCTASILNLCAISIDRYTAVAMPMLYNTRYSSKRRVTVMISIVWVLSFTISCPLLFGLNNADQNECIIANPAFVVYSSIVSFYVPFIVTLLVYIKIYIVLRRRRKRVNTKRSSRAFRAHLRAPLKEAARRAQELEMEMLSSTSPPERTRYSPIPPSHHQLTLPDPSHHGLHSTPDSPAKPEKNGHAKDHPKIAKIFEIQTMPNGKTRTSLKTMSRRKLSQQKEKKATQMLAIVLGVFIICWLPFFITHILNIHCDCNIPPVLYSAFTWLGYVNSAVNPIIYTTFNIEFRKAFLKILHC
- Experiment summary: Dopamine D2 selectivity binding assay ([3H]-spiperone)
- Measurement setup: inhibition of [3H]-spiperone (0.16 nM) binding; read-out: D2 bind pIC50 (converted)
Where a name gives a salt, the structure may show the parent alone.
Output T for records whose IC50 is lower than 300 nM, F for records at or above 300 nM.

Compound: Cc1cccc(CCNCCC(=O)N(CCNCCc2ccc(O)c3[nH]c(=O)sc23)C2CCCCC2)c1 [Example 14, bis-trifluoroacetic acid salt]
Experimental system: recombinant human Dopamine Subtype D2s receptors (Homo sapiens, UniProt P14416)
Class: F
//
Compound: CC(C)(CO)CN(CCNCCc1ccc(O)c2[nH]c(=O)sc12)C(=O)CCNCCc1cccc(Cl)c1Cl [Example 67, bis-trifluoroacetic acid salt]
Experimental system: recombinant human Dopamine Subtype D2s receptors (Homo sapiens, UniProt P14416)
Class: T
//
Compound: O=C(CCNCCc1ccc(F)cc1F)N(CCNCCc1ccc(O)c2[nH]c(=O)sc12)C1CCCCCC1 [Example 55, bis-trifluoroacetic acid salt]
Experimental system: recombinant human Dopamine Subtype D2s receptors (Homo sapiens, UniProt P14416)
Class: T
//
Compound: C[C@H](CNCCC(=O)N(CCNCCc1ccc(O)c2[nH]c(=O)sc12)CC(C)(C)C)c1ccccc1 [Example 11, bis-trifluoroacetic acid salt]
Experimental system: recombinant human Dopamine Subtype D2s receptors (Homo sapiens, UniProt P14416)
Class: F

# TODO verify IC50 < 300 nM strictly for this compound: O=C(CCNCCc1ccccc1)N(CCNCCc1ccc(O)c2[nH]c(=O)sc12)C1CCC(F)(F)CC1 [Example 4, bis-trifluoroacetic acid salt] F

Check if IC50 falls below 300 nM for O=C(CCNCCc1ccc(F)cc1)N(CCNCCc1ccc(O)c2[nH]c(=O)sc12)C1CCCCC1 [Example 16, bis-trifluoroacetic acid salt] . F

Decide: IC50 of COc1ccc(CCNCCC(=O)N(CCNCCc2ccc(O)c3[nH]c(=O)sc23)C2CCCCCC2)cc1OC [Example 86, bis-trifluoroacetic acid salt] strictly below 300 nM? T

Lab log: compare recorded IC50 with 300 nM; is it strictly lower for CC(C)(CO)CN(CCNCCc1ccc(O)c2[nH]c(=O)sc12)C(=O)CCNCCc1ccccc1Cl [Example 65, bis-trifluoroacetic acid salt] ? F

# TODO verify IC50 < 300 nM strictly for this compound: O=C(CCNCCc1cccc(C(F)(F)F)c1)N(CCNCCc1ccc(O)c2[nH]c(=O)sc12)C1CCCCCC1 [Example 82, bis-trifluoroacetic acid salt] T

Is it true that IC50 reported for O=C(CCNCCc1cccc(F)c1)N(CCNCCc1ccc(O)c2[nH]c(=O)sc12)C1CCCCCC1 [Example 36, bis-trifluoroacetic acid salt] is less than 300 nM? T

Record O=C(CCNCCc1ccc(Cl)cc1)N(CCNCCc1ccc(O)c2[nH]c(=O)sc12)C1CCCCCC1 [Example 51, bis-trifluoroacetic acid salt] : is its IC50 strictly below 300 nM? T

In plain terms, does O=C(CCNCCc1ccc(O)c2[nH]c(=O)sc12)N(CCNCCc1ccc(O)c2[nH]c(=O)sc12)C1CCCCCC1 [Example 87, bis-trifluoroacetic acid salt] come in under 300 nM for IC50? T

For this compound, is IC50 lower than 300 nM? O=C(CCNCCc1cccc(O)c1)N(CCNCCc1ccc(O)c2[nH]c(=O)sc12)C1CCCCC1 [Example 71, bis-trifluoroacetic acid salt] T

Determine if O=C(CCNCCc1ccc2c(c1)OCO2)N(CCNCCc1ccc(O)c2[nH]c(=O)sc12)C1CCCCC1 [Example 76, bis-trifluoroacetic acid salt] shows IC50 strictly lower than 300 nM. T

In plain terms, does O=C(CCNCCc1ccccc1)N(CCNCCc1ccc(O)c2[nH]c(=O)sc12)C1Cc2ccccc2C1 [Example 41, bis-trifluoroacetic acid salt] come in under 300 nM for IC50? T

Please determine if CC(C)N(CCNCCc1ccc(O)c2[nH]c(=O)sc12)C(=O)CCNCCc1ccc(Cl)cc1 [Example 3, bis-trifluoroacetic acid salt] is below 300 nM in terms of IC50. F

Does the reported IC50 of O=C(CCNCCc1ccccc1)N(CCNCCc1ccc(O)c2[nH]c(=O)sc12)C1CCCCCC1 [Example 23, bis-trifluoroacetic acid salt] stay below 300 nM? T

Take the compound O=C(CCNCCc1cccc(F)c1)N(CCNCCc1ccc(O)c2[nH]c(=O)sc12)C1CCCCC1 [Example 96, dihydrobromide salt] and say whether its IC50 is less than 300 nM. F
